Source: the supplement of paper PMC10126150

Let's look at some sequences and their measured switch fluorescence ratio.
Test system: ATP;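 further: ATP exposure 15 min at 22 °C before imaging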
Test: switch fluorescence ratio, 500 uM ATP over buffer (Cy3 cluster intensity, sum of 5 cycles each) (fold (ratio)); higher = stronger signal-on switching upon ATP binding; sequences stand for … in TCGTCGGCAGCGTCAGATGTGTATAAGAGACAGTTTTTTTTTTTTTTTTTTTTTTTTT…TC
Details: aptamer strand: ATP DNA aptamer (quencher-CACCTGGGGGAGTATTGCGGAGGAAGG + anchor), 100 nM annealed; ATP concentration: 500 uM
Lab note: jot down the number only; don't add units.

Illustrative cases are given below, each with its answer.
ATCAACGGAA :: 1.08
TAAGAGGAGT :: 0.985
GGGGGCCGGA :: 1.01
GGATCCGAGC :: 1.03
ACTGGTTATT :: 1

// field: switch fluorescence ratio; key: CTTCCTTTTT ; value = 3.13

// field: switch fluorescence ratio; key: TATCGAGGGT ; value = 0.97

###

Test system: ATP;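 further: ATP exposure 15 min at 22 °C before imaging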
Experiment: switch fluorescence ratio, 500 uM ATP over buffer (Cy3 cluster intensity, sum of 5 cycles each) (fold (ratio)); higher = stronger signal-on switching upon ATP binding; sequences stand for … in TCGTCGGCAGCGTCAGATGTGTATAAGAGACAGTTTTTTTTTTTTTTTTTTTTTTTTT…TC
Conditions: aptamer strand: ATP DNA aptamer (quencher-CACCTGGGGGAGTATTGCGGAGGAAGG + anchor), 100 nM annealed; ATP concentration: 500 uM
Let's look at some sequences and their measured switch fluorescence ratio.
Lab note: jot down the number only; don't add units.

// field: switch fluorescence ratio; key: TATATTTCTA ; value = 0.999

// field: switch fluorescence ratio; key: TAGGGGATAG ; value = 1.02

// field: switch fluorescence ratio; key: TTGGGGCTTT ; value = 1.02

// field: switch fluorescence ratio; key: ATGAGGGCCA ; value = 1.01

// field: switch fluorescence ratio; key: TCGAAGCCAG ; value = 1.06

// field: switch fluorescence ratio; key: TCCTCAGGAT ; value = 1.02

// field: switch fluorescence ratio; key: GGGTGAAATT ; value = 0.986

// field: switch fluorescence ratio; key: ACGTCTATGT ; value = 0.992

// field: switch fluorescence ratio; key: GTTATACGAA ; value = 1.03

// field: switch fluorescence ratio; key: AGATCGGGTG ; value = 1

// field: switch fluorescence ratio; key: TCCATAGGGC ; value = 1

// field: switch fluorescence ratio; key: CTGAATCCTA ; value = 1.01

// field: switch fluorescence ratio; key: CAGTAAGAGC ; value = 0.935

// field: switch fluorescence ratio; key: GAGGCGGTGG ; value = 1.01

// field: switch fluorescence ratio; key: CGATATGGGC ; value = 1.02

// field: switch fluorescence ratio; key: GGAGGGGTTG ; value = 1.04

// field: switch fluorescence ratio; key: GTAATGCTCA ; value = 1.36

// field: switch fluorescence ratio; key: TCAGTATAGG ; value = 1.01

###

Test system: ATP;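 further: ATP exposure 15 min at 22 °C before imaging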
Assay: switch fluorescence ratio, 500 uM ATP over buffer (Cy3 cluster intensity, sum of 5 cycles each) (fold (ratio)); higher = stronger signal-on switching upon ATP binding; sequences stand for … in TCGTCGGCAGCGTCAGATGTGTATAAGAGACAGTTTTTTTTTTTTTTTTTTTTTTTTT…TC
Conditions: aptamer strand: ATP DNA aptamer (quencher-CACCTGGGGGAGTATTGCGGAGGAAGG + anchor), 100 nM annealed; ATP concentration: 500 uM
Let's look at some sequences and their measured switch fluorescence ratio.

Illustrative cases are given below, each with its answer.
GGGGTAGACT :: 0.995
TTTTGATTTG :: 1
CGTTTAATGG :: 0.984
GGAAATGTCG :: 0.918
TATACAAATT :: 0.989
ACCACAAAGG :: 1.48

Observed switch fluorescence ratio on ATP, entry GTTGGTGATT , equals 0.996

Observed switch fluorescence ratio on ATP, entry TTGGATTCAT , equals 0.995

Observed switch fluorescence ratio on ATP, entry TTGGAAGTC , equals 1.04

Observed switch fluorescence ratio on ATP, entry TTTTTGTGGG , equals 0.993

Observed switch fluorescence ratio on ATP, entry CTCGTAGCAG , equals 1.17

Observed switch fluorescence ratio on ATP, entry AGGATAGGGT , equals 1.02

Observed switch fluorescence ratio on ATP, entry CGCTGTGGCG , equals 0.983
